- target: T1, human BCMA on BCMA expressing cell lines (human, UniProt Q02223 1-184)
- T1 sequence: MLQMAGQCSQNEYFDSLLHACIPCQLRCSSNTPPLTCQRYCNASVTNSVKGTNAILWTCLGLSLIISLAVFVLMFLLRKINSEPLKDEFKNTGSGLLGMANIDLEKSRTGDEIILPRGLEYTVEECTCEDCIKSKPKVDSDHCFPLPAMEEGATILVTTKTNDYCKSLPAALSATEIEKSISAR
- methodSummary: cell-based or functional assay
Quick reference: TDCC EC50 (EJM cells) of the listed items.
Output spec: scalar in pM, unitless text.

Per the record, BCMA targeting trispecific protein 01H10 (other, trispecific; not shown: The C-terminal 6xHis tag is left out because it follows these missing domains) VHH: EVQLVESGGGLVQPGRSLTLSCAASTNIPSISPMGWYRQAPGKQRELVAAIHGESTLYADSVKGRFTISRDNAKNSIYLQMNSLRPEDTALYYCNKVPWGDYHPRNVYWGQGTQVTVSS has TDCC EC50 (EJM cells) of 35.2

Per the record, BCMA targeting trispecific protein 01A07 (other, trispecific; not shown: the C-terminal His6 follows those missing domains and is left out) VHH: EVQLVESGGGLVQPGRSLTLSCAASTNISSISPMGWYRQAPGKQRELVAAIHGTSTLYADSVKGRFTISRDNAKNSIYLQMNSLRPEDTALYYCNKVPWGDYHPGNVYWGQGTQVTVSS has TDCC EC50 (EJM cells) of 2.49

Further cases:
Per the record, BCMA targeting trispecific protein 02B06 (other, not shown: large carriers; small tags and cut ends, trispecific; also called 02B06 TriTAC) VHH: EVQLVESGGGLVQPGRSLTLSCAASTNIFSNSPMGWYRQAPGKQRELVAAIHGFSTLYADSVKGRFTISRDNAKNSIYLQMNSLRPEDTALYYCNKVPWGDYHPGNVYWGQGTQVTVSS has TDCC EC50 (EJM cells) of 1.65
